Assayed System: Cytochrome P450 1A2 (Homo sapiens);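 further: PubChem cytochrome P450 panel assay, CYP1A2 panel member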
Sequence (P05177 whole entry): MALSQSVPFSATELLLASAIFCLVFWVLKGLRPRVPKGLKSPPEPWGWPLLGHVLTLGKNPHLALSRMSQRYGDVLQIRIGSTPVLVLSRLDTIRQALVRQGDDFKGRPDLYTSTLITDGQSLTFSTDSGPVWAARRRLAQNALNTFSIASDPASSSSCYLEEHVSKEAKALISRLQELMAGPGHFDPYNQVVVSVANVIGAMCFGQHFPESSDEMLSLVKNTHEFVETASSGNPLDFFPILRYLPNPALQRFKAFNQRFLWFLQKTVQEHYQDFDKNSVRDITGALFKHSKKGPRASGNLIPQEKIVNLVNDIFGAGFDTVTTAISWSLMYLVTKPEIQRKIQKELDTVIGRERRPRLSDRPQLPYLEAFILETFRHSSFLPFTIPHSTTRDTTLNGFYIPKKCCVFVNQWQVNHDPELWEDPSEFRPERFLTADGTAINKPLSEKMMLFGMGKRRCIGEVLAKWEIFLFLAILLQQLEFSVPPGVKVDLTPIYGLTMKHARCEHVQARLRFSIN
The following molecules are listed with their measured AC50 values.

{"Molecule": "COc1ccc(C)cc1NC(=O)CN1CCN(S(=O)(=O)c2ccc(F)cc2)CC1", "AC50": "0.0398 µM (inconclusive)"}
{"Molecule": "Cc1cccc(NC(S)=NNC(=O)CCn2cc(C)cn2)c1", "AC50": "25.1 µM (inconclusive)"}

# molecule `O=C(Nc1ccccc1)N1CCCC2(CCN(C(=O)c3cc(C(F)(F)F)cc(C(F)(F)F)c3)CC2)C1` ; its AC50 = 31.6 µM (inconclusive)

# molecule COC(=O)C1=C(C)NC(C)=C(C(=O)OC(C)C)C1c1cccc2nonc12 (stereo not drawn) ; its AC50 = 31.6 µM (inconclusive)

# molecule `CC(=O)[C@H](C(=N)C#N)C(=O)Nc1ccccc1` ; its AC50 = 6.31 µM (inconclusive)

# molecule `O=c1c(-c2cccs2)nc2cnc(N3CCOCC3)nc2n1Cc1cccs1` ; its AC50 = 15.8 µM (inconclusive)

# molecule `CC(=O)Nc1ccc2c(c1)/C(=C/c1ccc([N+](C)(C)C)cc1)c1ccccc1-2` ; its AC50 = 1.58 µM (inconclusive)

# molecule `O=C(O)c1ccc(Oc2nc3ccccc3s2)cc1` ; its AC50 = 3.16 µM (inconclusive)

# molecule CCCCNC(=O)CN1C(=O)NC2(CCCc3ccccc32)C1=O (stereo not drawn) ; its AC50 = 25.1 µM (inconclusive)

# molecule `O=C1N[C@@]2(CN3CCC2CC3)C(=O)N1CN(Cc1ccccc1)c1ccccc1` ; its AC50 = 0.398 µM (inconclusive)

# molecule `COc1ccccc1CN1CCCC2(CCN(C(C)=O)CC2)C1` ; its AC50 = 25.1 µM (inconclusive)

# molecule `CC1CCN(c2ccc(NC(=S)NC(=O)c3ccco3)cc2)CC1` ; its AC50 = 28.2 µM (inconclusive)

# molecule `O=C(c1cccc(F)c1)N1CCC2(CCN(Cc3ccncc3)CC2)CC1` ; its AC50 = 12.6 µM (inconclusive)
